system: SNB-75; experiment: NCI tumour cell line growth inhibition, 48 h
The source made the active and inactive calls. Rule as the data show it: active = GI50 up to about 1.1 µM and inactive = higher.
# maps each entry to its GI50

compound	result
NC(=O)C(=CNC(N)=S)C(N)=O	> 100 µM (inactive)

Which GI50 reading was recorded for the compound `Cc1ccc2c(c1)Sc1ccc(/N=N/N(C)C)cc1N2C` ?
> 100 µM (inactive)

Another: `Cc1ccc2c(O)cc(-c3ccc(Cl)s3)nc2n1`
1.4 µM (inactive)

Another: O=c1n(-c2ccccc2)c(=O)n2n1C1Cc3ccccc3C12 (configuration not stated)
69.5 µM (inactive)

Another: `O=c1c2ccc(Cl)cc2oc2c(CSc3ccccc3)cccc12`
> 33.2 µM (inactive)

Another: `Cc1cccc2c(O)cc(=O)oc12`
> 100 µM (inactive)

Another: `COC(=O)c1ccc(CCc2cc(O)ccc2O)cc1`
3.77 µM (inactive)

Another: `Nc1ccc(-c2nc3ccc(F)cc3s2)cc1Cl`
37 µM (inactive)

Another: C=CCC1=C2CCCCC2CCC1=O (configuration not stated)
> 100 µM (inactive)

###

# maps each entry to its GI50
tested on: SR; experiment: NCI tumour cell line growth inhibition, 48 h
The source made the active and inactive calls. Rule as the data show it: active = GI50 up to about 1.1 µM and inactive = higher.

N#C/C(=C/NC(=S)Nc1ccc(S(N)(=O)=O)cc1)C(N)=O > 100 µM (inactive)
O=c1[nH]c(=O)n(COCCO)c2ccc(Br)cc12 80.4 µM (inactive)

Please find the next compound below.
Which GI50 reading was recorded for the compound `CCCCCCCC(=O)NCC(O)CNC(=O)CCCCCCC` ?
> 100 µM (inactive)

###

test system: M14; test: NCI tumour cell line growth inhibition, 48 h
Activity calls are given as the source filed them. Rule as the data show it: active = GI50 up to about 1.1 µM and inactive = higher.
# maps each entry to its GI50

Use the examples below as a reference point.
compound	GI50
O=C1C2=C(C(=O)c3c(O)ccc(O)c31)[C@@H](O)[C@@H](O)[C@@H](O)C2	1.86 µM (inactive)
Cc1cnc(-c2c[nH]c3ccccc23)nc1-c1c[nH]c2ccccc12	4.32 µM (inactive)
CC1=NN=C(NCCN(C)C)C/C1=C/c1ccccc1Cl	39.4 µM (inactive)

Which GI50 reading was recorded for the compound COC(=O)C1C2CC3C1C3C2C(=O)OC (centres undefined) ?
> 100 µM (inactive)

Another: `N#Cc1c(-c2cccc(Br)c2)cc(-c2ccc(Cl)cc2)nc1N`
20.7 µM (inactive)

Another: COc1ccc(/C=C/C(=O)c2c(-c3ccccc3)nn(C)c(=O)c2N2CC2C)cc1 (centres undefined)
28.8 µM (inactive)

###

# maps each entry to its GI50
test system: A498; experiment: NCI tumour cell line growth inhibition, 48 h
Activity calls are given as the source filed them. Rule as the data show it: active = GI50 up to about 1.1 µM and inactive = higher.

compound	parameter	result
OC(CCN1CCCCC1)(c1ccccc1)c1ccccc1	GI50	> 100 µM (inactive)
CCCCCCCC(=O)NCC(O)CNC(=O)CCCCCCC	GI50	> 100 µM (inactive)
CCN(CC)CCNC(=O)c1cc2cc(NC(=O)c3cc4cc([N+](=O)[O-])ccc4[nH]3)ccc2[nH]1	GI50	27 µM (inactive)
CN(/N=C/c1ccc(C(=O)O)cc1)C1=NCCCCN1	GI50	> 100 µM (inactive)

Please find the next compound below.
Which GI50 reading was recorded for the compound CC1CN=C(N(C(=O)Nc2ccccc2)c2ccccc2)S1 (stereo not given) ?
10.6 µM (inactive)

###

tested on: LOX IMVI; assay: NCI tumour cell line growth inhibition, 48 h
Active and inactive are the calls of the source. No stated cut-off is given here; in the data, active = GI50 up to about 1.1 µM and inactive = higher.
parameter: GI50

Use the examples below as a reference point.
compound	GI50
CNC(=O)OCc1nc(N=[N+]=[N-])n(C)c1COC(=O)NC	60.8 µM (inactive)
COCCO	> 100 µM (inactive)
Nc1n[nH]c(N)n1	2960 µM (inactive)
O=C1CN2C(Cl)(Cl)C2(c2ccccc2)c2cc(Cl)ccc2N1CC1CC1 (stereo not drawn)	17.3 µM (inactive)
C=C(C)C1CC=C(C)C(O)([C@@]2(O)C[C@H](C(=C)C)CC=C2C)C1 (stereo partly drawn)	13.9 µM (inactive)
COC(=O)C1C2CC3C1C3C2C(=O)OC (stereo not drawn)	> 100 µM (inactive)
Nc1nc(N)c(N=O)c(Nc2ccc(Br)cc2)n1	18.2 µM (inactive)

Please find the next compound below.
Which GI50 reading was recorded for the compound `COC(=O)C(=O)c1cc2ccccc2n1S(=O)(=O)c1ccccc1` ?
> 100 µM (inactive)

###

system: HOP-62; test: NCI tumour cell line growth inhibition, 48 h
The source made the active and inactive calls. Cut-off read from the data, not from the text of the source: active = GI50 up to about 1.1 µM and inactive = higher.
I would appreciate it if you answered using one of these outcomes: active, inactive

compound	labelClass
CC(=C(C(=O)O)C(=O)O)c1cc(-c2cccs2)cc(-c2ccc(Cl)cc2)c1O	inactive

Next compound, please.
Returns: the outcome recorded for `CC(C)OP(=O)(OC(C)C)c1nn(-c2ccc([N+](=O)[O-])cc2)c(=N)s1` in this assay.
inactive

###

system: SK-MEL-5; assay: NCI tumour cell line growth inhibition, 48 h
Activity calls are given as the source filed them. Rule as the data show it: active = GI50 up to about 1.1 µM and inactive = higher.
# maps each entry to its GI50

Use the examples below as a reference point.
molecule	system	GI50
OC(CCN1CCCCC1)(c1ccccc1)c1ccccc1 [PRIDINOL]	SK-MEL-5	82.8 µM (inactive)
OC1[C@@H]2[C@@H](O)[C@H](O)[C@@H](O)N2C[C@@H]1O (stereo not given in full)	SK-MEL-5	> 100 µM (inactive)
c1ccc([P+](CC[P+](c2ccccc2)(c2ccccc2)c2ccccc2)(c2ccccc2)c2ccccc2)cc1	SK-MEL-5	8.79 µM (inactive)
CCOC(CCNCC(OCC)OCC)OCC	SK-MEL-5	> 10 µM (inactive)

Please find the next molecule below.
Which GI50 reading was recorded for the molecule COc1cc2c3cc1Oc1c(OC)c(OC)cc4c1C(Cc1ccc(O)c(c1)Oc1ccc(cc1)CC3N(C)CC2)CN(C)C4 (stereo not given) ?
13.5 µM (inactive)

###

tested on: ACHN; assay: NCI tumour cell line growth inhibition, 48 h
The source made the active and inactive calls. No stated cut-off is given here; in the data, active = GI50 up to about 1.1 µM and inactive = higher.
parameter: GI50

Use the examples below as a reference point.
molecule	system	GI50
O=C(/C=C1\Nc2ccccc2N\C1=C\C(=O)c1ccc(Cl)cc1)c1ccccc1	ACHN	31.6 µM (inactive)
O=C1CCCCC/C1=C\c1cccc(F)c1	ACHN	35.6 µM (inactive)
CN1C(=O)CC(c2cccc(C3CC(=O)N(C)C3=O)n2)C1=O (stereo not drawn)	ACHN	> 100 µM (inactive)
COc1cc(C(=O)O)c([N+](=O)[O-])c(OC)c1OC	ACHN	> 100 µM (inactive)
FC(F)(F)c1cccc(-c2nc3nc(Cl)c(Cl)nc3[nH]2)c1	ACHN	2.63 µM (inactive)
CC(C)(C)OC(=O)N1C2CCCC23O[C@@H]1c1cc2c(cc1C3=O)OCO2 (stereo partly drawn)	ACHN	54.1 µM (inactive)
O=[N+]([O-])c1ccc(/N=N\c2c(O)c(S(=O)(=O)O)cc3cc(S(=O)(=O)O)ccc23)cc1	ACHN	> 100 µM (inactive)
Cc1cc(S(=O)(=O)/N=C2\NCCN2Cc2ccccc2)c(S)cc1Cl	ACHN	> 100 µM (inactive)

# get_value(readout= GI50, system= ACHN) for `Cc1noc(NS(=O)(=O)c2ccc(NC(=O)c3ccc4nc5ccccc5c(Nc5ccc(S(=O)(=O)Nc6onc(C)c6C)cc5)c4c3)cc2)c1C`
> 100 µM (inactive)

Another: `CS(=O)(=O)CC(=O)c1ccccc1`
> 100 µM (inactive)

Another: `Cc1nc(N/N=C/c2ccccc2Cl)[nH]c(=O)c1CCO`
> 100 µM (inactive)

Another: `CCOC(=O)c1cc2cc(Cc3ccc4[nH]c(C(=O)OCC)cc4c3)ccc2[nH]1`
14.5 µM (inactive)

Another: `COc1ccc(C(=O)/C=C/c2ccc(OCCCOc3ccc(/C=C/C(=O)c4ccc(OC)c(OC)c4)cc3)cc2)cc1OC`
> 100 µM (inactive)

###

# maps each entry to its GI50
tested on: SF-295; test: NCI tumour cell line growth inhibition, 48 h
Active and inactive are the calls of the source. Rule as the data show it: active = GI50 up to about 1.1 µM and inactive = higher.

Use the examples below as a reference point.
compound	parameter	result
Cc1ccc(C2SCC(=O)N2NC(=O)c2ccncc2)s1 (stereo not given)	GI50	> 100 µM (inactive)
COc1ccc(C(=O)C(c2ccc(OC)cc2)C2(O)C(=O)Nc3c(Cl)cc(Cl)cc32)cc1 (stereo not given)	GI50	19.3 µM (inactive)
CCCCCCCCCCCOCCC1C(C(C)OCCN2CCCC2)OC2OC(C)(C)OC21 (stereo not given)	GI50	2.32 µM (inactive)
O=C1C=CC=C/C1=C1/SC(c2ccccc2)=C(O)N1c1ccccc1	GI50	> 100 µM (inactive)
COC(=O)C(Cc1nc2ccc(Cl)cc2nc1O)C(=O)C(=O)Nc1cc(C)ccc1C (stereo not given)	GI50	> 100 µM (inactive)

Which GI50 reading was recorded for the compound CC1=NN(C(=O)c2ccccc2O)C(c2ccccc2Cl)C1C(=O)Nc1ccccc1 (stereo not given) ?
0.0975 µM (active)

Another: `O=C(/C=C\c1ccccc1)N1CCc2ccccc2C1`
34.9 µM (inactive)

Another: `O=C1CC(=O)N(CCc2ccccc2)S(=O)(=O)N1CCc1ccccc1`
16.9 µM (inactive)

Another: `O=C1C=C(c2c(O)ccc3ccccc23)c2cc(O)ccc2C1=O`
18.5 µM (inactive)

Another: `NC(=O)C(=CNC(N)=S)C(N)=O`
> 100 µM (inactive)

Numbers sourced from ChEMBL document CHEMBL1201862.
